- PROCEDURE_SUMMARY: Biodistribution in baboon lung at 85 mg, iv after 90 mins
- Type: ADME, organism-based
- STUDY_CONDITIONS: papio hamadryas, read-out: Drug uptake
MEASUREMENT_LABEL: concentration at 1.5 h (ng/mL)
API: value field is a number in ng/mL; no unit string.

QUERY: Give the value of concentration at 1.5 h reported for the following: NN[11C](=O)c1ccncc1
RESULT: 4190

----------
- PROCEDURE_SUMMARY: Biodistribution in baboon liver at 340 mg, iv after 60 mins
- Type: ADME, organism-based
- STUDY_CONDITIONS: papio hamadryas, read-out: Drug uptake
MEASUREMENT_LABEL: concentration at 1 h (ng/mL)
API: value field is a number in ng/mL; no unit string.

QUERY: Give the value of concentration at 1 h reported for the following: N[11C](=O)c1cnccn1
RESULT: 22000
